Recorded protein stability index for the following sequences
Test: protein stability index of a GFP-peptide fusion (yeast GPS) (PSI 1-4); higher = more stable; sorted into four equal gates, so the index is relative within each strain
Conditions: san1∆
Lab note: write the figure by itself, no unit.

Below, 6 sequences whose answers are already recorded.
sequence code | protein stability index
KGVLLYGPPGTGKTLLA [RPT4] | 2.57
DWFTYSYFYRRIHVNPS [BRR2] | 1.53
GQKNEVRILRLITTNSV [SNF2] | 2.14
LNKEKLGPLFKKIVDDT [IRR1] | 3.22
PTGKEEGDGAKAAISFG [YJL041W/NSP1] | 3.35
DRFPLKLREPVARFLHF [ITC1] | 1.79

Noted for IFGGAGGVPTTSFGQPQ [YOR098C/NUP1] : its protein stability index reads 1.55

Noted for PMEVMGLMLGEFVDDYT [RPN11] : its protein stability index reads 3.12

----------
Assay: protein stability index of a GFP-peptide fusion (yeast GPS) (PSI 1-4); higher = more stable; sorted into four equal gates, so the index is relative within each strain
Conditions: san1∆
Recorded protein stability index for the following sequences
Lab note: write the figure by itself, no unit.

Below, 2 sequences whose answers are already recorded.
sequence code | protein stability index
ATDEESVRLQRFYQLGV [CSN12] | 2.92
KLRARLVEYGFDPSRIK [SMC2] | 2.33

Noted for KTGTKPAAVFTETLKHD [RPL4A] : its protein stability index reads 1.74

Noted for IVEQDKSMELFYDIRSL [YJL039C/NUP192] : its protein stability index reads 2.66

Noted for DQKTGRAKSSSHLFNEY [RPN4] : its protein stability index reads 3.39

Noted for ILKWVQWSRIVLQNVFK [MED1] : its protein stability index reads 3.29

Noted for NMGMNNMNNGGKELDSL [PGD1] : its protein stability index reads 3.24

Noted for VPSTTNVNMTVNTMGTG [MED6] : its protein stability index reads 2.91

Noted for LLGPTLEDHTPPEDKPN [QCR10] : its protein stability index reads 2.94

Noted for FAGVASMNVTLGVPRIK [RPO31] : its protein stability index reads 2.94

Noted for QAIAKNNPQVVNAITVA [SNF5] : its protein stability index reads 1.63

Noted for DYYYEDAGSNQYYVTQH [SWI1] : its protein stability index reads 3.09

Noted for AELRPLQFKSIREIDVA [RPS7A] : its protein stability index reads 1.97

----------
Recorded protein stability index for the following sequences
Assay: protein stability index of a GFP-peptide fusion (yeast GPS) (PSI 1-4); higher = more stable; sorted into four equal gates, so the index is relative within each strain
Details: doa10∆

Below, 8 sequences whose answers are already recorded.
sequence code | protein stability index
RTTTNTTAEPKAKRAKT [TAF14] | 2.67
KKKQQGAKQTQGGAMNK [SRP72] | 2.07
DKDVKAKYETSILEHSG [FAS2] | 3.36
DSRTTTGAYIANRVTDK [PRE3] | 2.99
AVAVVVDPIQSVKGKVV [RPN11] | 2.22
APSVPEFIYLTKVLQFA [SNF2] | 2.82
ILPTDGSAEFNVKYRAV [RPB7] | 2.57
MTIDLEPIEESSQNNSE [IRR1] | 2.94

Noted for MLGHYLGEFSITYTPVR [RPS15] : its protein stability index reads 2.27

Noted for IQRTLMELLTQMDGFDN [RPT4] : its protein stability index reads 2.84

Noted for ANLEDIIFEIEKPLVVP [RRP6] : its protein stability index reads 2

----------
Assay: protein stability index of a GFP-peptide fusion (yeast GPS) (PSI 1-4); higher = more stable; sorted into four equal gates, so the index is relative within each strain
Conditions: doa10∆
Output yes for protein stability index not less than 3; output no otherwise.

sequence code | class label
NSSKYYINEKESSYTEV [SMC4] | yes
PNVDLVTALEVLSLGRP [RGR1] | no
KDQALIGTINSIVHINS [SIR2] | no
KELKEKEAAESPEEADV [PUP2] | yes

Q: Please tell me: is the sequence NVTETYSVYLIHEIRLN [SIR3] at or over 3 in terms of protein stability index?
Result: no

Q: Please tell me: is the sequence DVRRLKKNVWRSINNLI [BRN1] at or over 3 in terms of protein stability index?
Result: no

Q: Please tell me: is the sequence AIRRDARYNWICDPVHK [RPL15A] at or over 3 in terms of protein stability index?
Result: no

Q: Please tell me: is the sequence ENCLNNDPEILKKIASI [SWI1] at or over 3 in terms of protein stability index?
Result: no

Q: Please tell me: is the sequence LQLAPGAHLGRFVIWTE [RPL4A] at or over 3 in terms of protein stability index?
Result: yes

----------
Recorded protein stability index for the following sequences
Test: protein stability index of a GFP-peptide fusion (yeast GPS) (PSI 1-4); higher = more stable; sorted into four equal gates, so the index is relative within each strain
Settings: doa10∆
Lab note: write the figure by itself, no unit.

Below, 10 sequences whose answers are already recorded.
sequence code | observed value
TSGTSSEQFNVWDWNNW [GAL11] | 2.56
HTDVSSSLEARYFFYLS [RPN3] | 2.68
IQVFEKPFLKKTQEYYT [CDC53] | 2.36
SLNSMTNAKLPNVDLVT [RGR1] | 2.53
AELRPLQFKSIREIDVA [RPS7A] | 2.26
SIRSRRPYQVNVLIGGY [PRE1] | 2.34
EFDEQYGTRPLVLPPVV [SNF2] | 3.08
IFLHSLPVKEFQIIDTL [RPS2] | 2.49
AIPSRMTVAHLIECLLS [RPB2] | 1.39
RNADELSSYQKKIIKCD [PRE5] | 2.25

Noted for PSIIFIDEVDSIATKRF [RPT3] : its protein stability index reads 3.05

Noted for DLMDEELRKHAQKRVSN [SKI6] : its protein stability index reads 3.38

Noted for QLKNGLLEKYNTNELKE [MTR3] : its protein stability index reads 2.97

----------
Recorded protein stability index for the following sequences
Assay: protein stability index of a GFP-peptide fusion (yeast GPS) (PSI 1-4); higher = more stable; sorted into four equal gates, so the index is relative within each strain
Conditions: doa10∆
Lab note: write the figure by itself, no unit.

Below, 8 sequences whose answers are already recorded.
sequence code | observed value
QRKEIKDRISSCSSKEK [SMC4] | 2.28
SVAEKEEIRSQIDHFKS [SWI3] | 1.73
VGLVMFSQFWYWFPLAH [RPN2] | 1.52
LIEPLPTESYLQYIIHD [BRR2] | 2.42
ESKQDGLSILFLTGQFA [YML103C/NUP188] | 2.79
GDEGYNEDMVRRANFYK [SNF12] | 3.38
LEQVEFEKNTILQQRSK [MED4] | 2.94
ILSSLYLLSIWVKKFKW [CYT1] | 2.22

# evaluate next
Noted for DLKRFVDESLLSTLPAG [QCR2] : its protein stability index reads 3.02

----------
Test: protein stability index of a GFP-peptide fusion (yeast GPS) (PSI 1-4); higher = more stable; sorted into four equal gates, so the index is relative within each strain
Conditions: doa10∆
Output class 1 for protein stability index not less than 3; output class 0 otherwise.

Would you please look over these solved cases?
sequence code | class label
QRKNIQSLELMIYDDAH [BRR2] | class 0
KMYSDDTLKDISTSFCF [BRN1] | class 1
ALEYIGAKVKTMRRQKL [RET1] | class 0
VTEMSNNANVLGGEIND [BRR2] | class 1
VDDLRPEFAGYSKAAEP [ASC1] | class 1
VAARMFHILLKLILEWV [ECM29] | class 0
NIPWDVPGMPAPIKKII [PRP8] | class 0
LVASAKGLQTVVVEEDA [RPL31A] | class 0

Now look at this entry.
Q: Please tell me: is the sequence ADNNDLQESINHVMYTE [ECM29] at or over 3 in terms of protein stability index?
Result: class 0

----------
Assay: protein stability index of a GFP-peptide fusion (yeast GPS) (PSI 1-4); higher = more stable; sorted into four equal gates, so the index is relative within each strain
Settings: san1∆
Output label 1 for protein stability index not less than 3; output label 0 otherwise.

Would you please look over these solved cases?
sequence code | class label
IVDDYWESLAKKQNLSS [SWP82] | label 1
GNQRKILQYSRTWYESF [YJR042W/NUP85] | label 0
DGVTHALYPQEARLRNL [RPB2] | label 1
NEGLVEYIDAEEEESIL [RPB2] | label 1

Q: Please tell me: is the sequence LSGVSNSMDMVDGMAKV [RGR1] at or over 3 in terms of protein stability index?
Result: label 1

----------
Test: protein stability index of a GFP-peptide fusion (yeast GPS) (PSI 1-4); higher = more stable; sorted into four equal gates, so the index is relative within each strain
Details: san1∆
value kind: protein stability index
Lab note: write the figure by itself, no unit.

Below, 4 sequences whose answers are already recorded.
sequence code | protein stability index
LRNVFLGKCSRITDASL [GRR1] | 2.68
LNCCGSVARVEDHDVHS [IRR1] | 2.41
LLPTIKRTICKKCHRLL [RPR2] | 2.26
DDIVSHQGTPLGSHSSS [REC8] | 3.04

Noted for SSEGFYSKIKHLGLDDP [SIR2] : its protein stability index reads 1.96

Noted for NIPWDVPGMPAPIKKII [PRP8] : its protein stability index reads 2.8

Noted for EVTIEDALKVVLRTALV [RPS12] : its protein stability index reads 3.35

Noted for LIESGIGTHHAGLTRSD [BRR2] : its protein stability index reads 2.82

Noted for NYDTCGGESAYFFQLQI [RPC11] : its protein stability index reads 2.04

Noted for DFPELKPYKQVKQIAPA [FAS2] : its protein stability index reads 2.58

Noted for TSSRGRDHKSYSQSPPR [SMC4] : its protein stability index reads 2.59
